// provenance: patent US12324802B2

Reported EC50 is given for each of the following compounds.
biological target: CFTR (F508del/MF-HBE cells) (Homo sapiens, UniProt P13569, DEL508-508); construct: human bronchial epithelial (HBE) cells derived from CF subjects heterozygous for F508del and a minimal function CFTR mutation; endogenous in cells; test: Ussing chamber assay of CFTR-mediated short-circuit currents (identification of potentiator compounds); conditions: CFTR-mediated ISC in F508del/MF-HBE cells; incubated 18-24 hours at 37° C. with 10 μM (14S)-8-[3-(2-{dispiro[2.0.2.1]heptan-7-yl}ethoxy)-1H-pyrazol-1-yl]-...-2,2,4-trione, 20% human serum
Sequence (P13569 with tags, fused parts or gaps DEL508-508): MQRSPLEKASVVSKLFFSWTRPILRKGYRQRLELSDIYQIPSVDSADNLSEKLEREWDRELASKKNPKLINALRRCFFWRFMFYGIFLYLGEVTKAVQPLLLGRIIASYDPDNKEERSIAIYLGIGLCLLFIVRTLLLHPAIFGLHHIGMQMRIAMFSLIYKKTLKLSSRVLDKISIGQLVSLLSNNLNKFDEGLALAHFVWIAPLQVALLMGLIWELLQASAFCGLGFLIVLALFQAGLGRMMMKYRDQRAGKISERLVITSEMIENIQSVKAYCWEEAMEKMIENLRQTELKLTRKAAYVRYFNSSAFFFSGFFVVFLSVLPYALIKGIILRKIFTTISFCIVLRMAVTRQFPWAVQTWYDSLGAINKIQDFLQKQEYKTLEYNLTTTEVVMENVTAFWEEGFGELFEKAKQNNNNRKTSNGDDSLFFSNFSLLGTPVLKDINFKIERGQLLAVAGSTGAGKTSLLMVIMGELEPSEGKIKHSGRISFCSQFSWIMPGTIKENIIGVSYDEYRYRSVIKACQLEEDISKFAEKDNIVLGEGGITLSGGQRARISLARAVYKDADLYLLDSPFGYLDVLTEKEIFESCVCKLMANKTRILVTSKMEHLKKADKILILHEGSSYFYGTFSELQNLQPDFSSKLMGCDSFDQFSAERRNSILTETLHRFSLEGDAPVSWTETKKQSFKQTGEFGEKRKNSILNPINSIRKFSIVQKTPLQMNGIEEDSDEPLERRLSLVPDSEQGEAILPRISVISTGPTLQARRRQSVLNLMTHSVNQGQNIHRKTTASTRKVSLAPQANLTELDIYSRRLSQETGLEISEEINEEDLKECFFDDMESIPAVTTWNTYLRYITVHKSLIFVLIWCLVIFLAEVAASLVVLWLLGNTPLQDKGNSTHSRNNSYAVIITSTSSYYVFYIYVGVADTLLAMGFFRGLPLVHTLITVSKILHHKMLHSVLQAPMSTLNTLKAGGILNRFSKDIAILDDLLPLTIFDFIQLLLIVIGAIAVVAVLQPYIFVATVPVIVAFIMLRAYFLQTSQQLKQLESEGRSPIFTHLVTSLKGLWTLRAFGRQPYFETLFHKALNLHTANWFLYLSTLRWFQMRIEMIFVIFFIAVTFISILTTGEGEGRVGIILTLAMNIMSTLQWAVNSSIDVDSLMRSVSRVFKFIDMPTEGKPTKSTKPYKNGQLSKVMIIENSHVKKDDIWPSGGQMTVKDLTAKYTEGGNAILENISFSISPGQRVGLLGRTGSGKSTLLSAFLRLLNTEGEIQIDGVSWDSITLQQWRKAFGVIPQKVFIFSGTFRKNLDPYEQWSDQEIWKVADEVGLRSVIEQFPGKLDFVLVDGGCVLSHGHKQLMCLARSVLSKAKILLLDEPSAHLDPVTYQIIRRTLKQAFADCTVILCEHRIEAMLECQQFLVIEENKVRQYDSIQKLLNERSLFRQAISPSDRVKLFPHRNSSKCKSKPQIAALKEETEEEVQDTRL

In [3]: df
Out[3]:
                                   compound                       experimental_target    result
0  Nc1cc(C(F)(F)F)c2nc1-c1nnc(o1)[C@@](O)(C(F)(F)F)CCCCCC(c1ccccn1)N2 (stereo partly drawn) [Compound 166]  CFTR (F508del/MF-HBE cells) (Homo sapiens, UniProt P13569, DEL508-508)  < 500 nM
1  CC1CCCCCC(O)(C(F)(F)F)C2=NN=C(O2)c2nc(c(C(F)(F)F)cc2N)N1 (single isomer, unassigned) [Compound 66]  CFTR (F508del/MF-HBE cells) (Homo sapiens, UniProt P13569, DEL508-508)  < 500 nM
2  CC1(C)CCCCC(O)(C(F)(F)F)C2=NN=C(O2)c2nc(c(C(F)(F)F)cc2N)NC1 (single isomer, unassigned) [Compound 171]  CFTR (F508del/MF-HBE cells) (Homo sapiens, UniProt P13569, DEL508-508)  < 500 nM

Simply: CC(C)N1CCCCCCC(O)(C(F)(F)F)C2=NN=C(O2)c2nc1c(C(F)(F)F)cc2N (single isomer, unassigned) [Compound 53] , CFTR (F508del/MF-HBE cells) (Homo sapiens, UniProt P13569, DEL508-508), EC50 = > 1000 nM

Simply: Nc1cc(C(F)(F)F)c2nc1-c1nnc(o1)[C@@](O)(C(F)(F)F)CCCCCC1(CCOC1)N2 (single isomer, unassigned) [Compound 207] , CFTR (F508del/MF-HBE cells) (Homo sapiens, UniProt P13569, DEL508-508), EC50 = < 500 nM

Simply: Nc1cc(C(F)(F)F)c2nc1-c1nnc(o1)C(O)(C(F)(F)F)CCCOC[C@@H]1CCCN21 (single isomer, unassigned) [Compound 167] , CFTR (F508del/MF-HBE cells) (Homo sapiens, UniProt P13569, DEL508-508), EC50 = < 500 nM
